Origin of values: ChEMBL document CHEMBL2390841

- System: Liver microsomes
- TEST_METHOD_NOTES: Metabolic stability in rat liver microsomes assessed as parent compound remaining after 30 mins
- Format: ADME, Microsome
- PARTICULARS: 0.5 h
MEASUREMENT_LABEL: Stability (%)
Output spec: scalar in %, unitless text.

# count of solved cases: 2
1. Cc1csc(CNc2nc3c(S(=O)(=O)c4ccc(C(C)(F)F)cc4)nnn3c3ccsc23)c1 : 22
2. CC(F)(F)c1ccc(S(=O)(=O)c2nnn3c2nc(NCc2ccco2)c2sccc23)cc1 : 14

[ask] Returns the measured Stability for the input molecule. Input: CC(F)(F)c1ccc(S(=O)(=O)c2nnn3c2nc(NCC2CC2)c2sccc23)cc1
[reply] 75

[ask] Query CC(F)(F)c1ccc(S(=O)(=O)c2nnn3c2nc(NCc2ccccc2)c2sccc23)cc1 next
[reply] 79

[ask] And then CC(F)(F)c1ccc(S(=O)(=O)c2nnn3c2nc(NCc2ccsc2)c2sccc23)cc1 , what is it?
[reply] 47

[ask] Item: CC(F)(F)c1ccc(S(=O)(=O)c2nnn3c2nc(NCC2CCC2)c2sccc23)cc1
[reply] 24
